Tested on: MOLT-4 leukemia
measurementDescription: NCI-60 one-dose screen, 48 h
measurementContext: 10 µM
Compounds without any hit were thinned out: in the full panel of roughly 83,000, 20% have a hit. Activity calls are given as the source filed them. The calls were made as follows: active = growth percent below 10; inactive = the rest.
Mark one answer only. Choices: 1 (active), -1 (inactive)

Example entries and their recorded answers appear below.
| molecule | labelClass |
| --- | --- |
| COc1cc2c3c(n([C@@H]4CCOC4)c(=O)c2cc1OC)-c1cc2c(cc1C3=O)OCO2 | -1 |
| CN(C)CCCOc1ccccc1NC1=C(Cl)C(=O)C(Nc2ccccc2OCCCN(C)C)=C(Cl)C1=O | 1 |
| CCCN(CCC)C(=O)[C@H](CC)[C@@H]1CC[C@@H](C)[C@@H]([C@H](C)[C@@H](O)[C@@H](C)C(=O)[C@H](CC)C2O[C@]3(C=C[C@@H](O)[C@]4(CC[C@@](C)([C@H]5CC[C@](O)(CC)[C@H](C)O5)O4)O3)[C@H](C)C[C@@H]2C)O1 (stereo not given in full) | -1 |
| NC(N)=N/N=C(\N=Nc1ccccc1)c1ccc(Cl)cc1 | 1 |
| COc1cc(N)c2ncccc2c1SC | -1 |

// next entry
Lab log entry: COC(=O)c1cc2oc(/C=C3/SC(=S)N(N)C3=O)cc2n1Cc1ccccc1 — outcome as called in the assay?
1

====

Test system: SF-268 CNS
measurementDescription: NCI-60 one-dose screen, 48 h (100 = growth as untreated, 0 = no growth, -100 = all killed)
measurementContext: 10 µM
Compounds without any hit were thinned out: in the full panel of roughly 83,000, 20% have a hit.
quantity: growth (%)
Answers are plain numbers, in %.

In the examples that follow, each entry is paired with its recorded growth.
| molecule | unitName | growth |
| --- | --- | --- |
| COc1cc(C2CC(c3cc(Cl)c(C)cc3O)=NN2c2ccc(S(N)(=O)=O)cc2)cc(OC)c1OC (centres undefined) | % | 24.6 |
| CN1CCN(CCC(=O)Nc2cccc(-n3cc(-c4ccncc4)c(-c4ccc(Cl)c(O)c4)n3)c2)CC1 | % | 50.8 |
| O=C(c1ccccc1)N(C(=O)c1ccccc1)N1CCCC1 | % | 98.7 |
| COc1cc(-c2nc3ccccc3o2)cc(CN2CCCCC2)c1O | % | 68.2 |
| N#Cc1c(-c2ccc(Cl)cc2)cc(-c2cc(O)ccc2O)nc1N | % | 31.9 |
| CCOC(=O)CSc1nc(-c2cc(OC)ccc2OC)cc(-c2ccc(OC)cc2)c1C#N | % | 73.9 |
| Cc1ccc(-n2nnnc2N)c(C)c1 | % | 114 |
| CCN(CC)c1ccc(/C=C2\SC(=O)C(Nc3nnc(-c4cccnc4SCc4ccccc4)o3)C2=O)cc1 (centres undefined) | % | 57.3 |

--- query ---
May I ask what growth has been recorded for C[C@]12CC[C@@H]3c4ccc(OS(=O)(=O)O)cc4CC[C@H]3[C@@H]1CC[C@@H]2NS(=O)(=O)c1ccc(-c2ccccc2)cc1 ?
69.8

====

System: HCT-15 colon
measurementDescription: NCI-60 one-dose screen, 48 h (100 = growth as untreated, 0 = no growth, -100 = all killed)
measurementContext: 10 µM
Compounds without any hit were thinned out: in the full panel of roughly 83,000, 20% have a hit.
Record form. Attribute: growth. Fill in for each entry.
Numbers only, in %.

Look over these answered cases.
| molecule | measurement |
| --- | --- |
| C1CN(CC2CCC(CN3CCOCC3)O2)CCO1 (stereo unspecified) | 101 |
| COc1ccc(Cc2cnc(N)nc2N)cc1OC | 101 |

Can you give me growth for all of these, one by one?
1. NC(CSC(c1ccccc1)(c1ccccc1)c1cccc2ccccc12)C(=O)O (stereo unspecified)
2. CCCCCOC(=O)Nc1nc(=O)n(C2O[C@H](C)[C@@H](O)[C@H]2O)cc1F (stereo partly specified)
3. CC(C)(O)CCl
4. CCOC(=O)C1=CSC2=NC3=C(CCC/C3=C\c3cc(OC)c(OC)c(OC)c3)C(c3cc(OC)c(OC)c(OC)c3)N12 (stereo unspecified)

1. 102
2. 101
3. 102
4. 57.7

====

Test system: CAKI-1 renal
measurementDescription: NCI-60 one-dose screen, 48 h (100 = growth as untreated, 0 = no growth, -100 = all killed)
measurementContext: 10 µM
Method: Growth inhibition of the CAKI-1 human tumor cell line is measured as a screen for anti-cancer activity. Cells are grown in 96 well plates and exposed to the test compound for 48 hours. Compounds are tested at a single concentration, which is 10^-5 M for most compounds. The reported endpoint is percent growth (GI% or GIPRCNT), where numbers from 0 - 100% represent growth inhibition, and numbers from -100% - 0 represent cell death. For example, a value of 40 represents 60% growth inhibition. […]
Compounds without any hit were thinned out: in the full panel of roughly 83,000, 20% have a hit.
quantity: growth (%)
Answers are plain numbers, in %.

These recorded examples may help you get a feel for the data.
| compound | quantity | unitName | measurement |
| --- | --- | --- | --- |
| COc1cc2c3c(n(C4CCNCC4)c(=O)c2cc1OC)-c1cc2c(cc1C3=O)OCO2 | growth | % | 21.4 |
| Cc1c2c[n+](C(C)C)ccc2c(C)c2c1[nH]c1ccccc12 | growth | % | 96 |
| Cc1cc(CSc2ccccc2C(=O)N2CC=C(c3ccccc3)CC2)on1 | growth | % | 86.3 |
| Nc1ccc(CC[C@H]2CCC/C=C/[C@@H]3C[C@H](O)C[C@H]3[C@H](O)/C=C/C(=O)O2)cc1 | growth | % | 7.49 |
| O=C(O)c1ccc(-n2cc(CNc3ccc(Cl)cc3)c(-c3ccccc3)n2)cc1 | growth | % | 88.8 |

Parameters: items (list). Returns: growth for each item.
1. O=C(O)c1ccc(-n2cc(CNc3ccc(Oc4ccccc4)cc3)c(-c3ccccc3)n2)cc1
2. Nc1nc(N)c(N)c(Nc2ccc(CCO)cc2)n1
3. O=C(CCCSc1nc(-c2ccccc2)cc(-c2ccc(Cl)cc2)n1)NO
4. CCCN1CN2C(=O)N3CN(CCC)CN4C(=S)N(C1)C2C34 (stereo unspecified)
5. COc1ccc(-c2cc(-c3ccc(OC)c(OC)c3)nc(SCCCC(=O)NO)n2)cc1
6. N#CC1=CC2CN(Cc3ccccc3)C1C1C(=O)N(c3ccccc3)C(=O)C21 (stereo unspecified)
7. O=C(CCNC(=O)c1nc(-c2ccccc2)n(-c2ccc(Cl)cc2)n1)NO
8. O=C(O)c1cc([N+](=O)[O-])ccc1Oc1ccccc1

1: 86.4; 2: 100; 3: 2.37; 4: 90.4; 5: -29.2; 6: 101; 7: 97.3; 8: 101

====

Tested on: DU-145 prostate
measurementDescription: NCI-60 one-dose screen, 48 h (100 = growth as untreated, 0 = no growth, -100 = all killed)
measurementContext: 10 µM
The panel holds about 83,000 compounds, 20% with a hit somewhere; the sample as a whole holds those more often.
quantity: growth (%)
Give bare numbers, in %.

Examples with their reported growth follow.
| compound | growth (%) |
| --- | --- |
| Cc1cc(SC#N)cc(C(C)(C)C)c1O | 110 |
| COC(=O)C1(O)NC(=C(C#N)C#N)C(C#N)=C1C(=O)c1ccc(OC)c(OC)c1 (stereo unspecified) | 111 |
| Cc1ccc(NC(=O)N2CCCCC2)cc1[N+](=O)[O-] | 108 |
| COc1ccc(-c2nnc(SCC(=O)Nc3ccc(C(=O)/C=C/c4ccccc4)cc3)n2-c2ccccc2)cc1OC | 50.4 |
| CC(=O)COc1ccc(Cl)cc1Cl | 106 |

GET /values?readout=growth&item= Cc1ccccc1N1C(=O)c2cc(S(N)(=O)=O)c(Cl)cc2NC1C (stereo unspecified)
111

====

System: PC-3 prostate
measurementDescription: NCI-60 one-dose screen, 48 h (100 = growth as untreated, 0 = no growth, -100 = all killed)
measurementContext: 10 µM
This is part of a sample that, as a whole, favours compounds with a hit. Of some 83,000 tested, about 20% had one in any assay.
quantity: growth (%)
Numbers only, in %.

Please review the following examples before continuing.
| compound | growth [%] |
| --- | --- |
| O=C1/C(=C/c2cccc(F)c2)Cc2ccccc21 | 90 |
| CC(=O)N[C@H](C(=O)N[C@@H](CCCNC(=N)N)C(=O)N[C@@H](CCCCN)C(=O)N[C@@H](CCCNC(=N)N)C(=O)NC(C(=O)N[C@@H](CC(C)C)C(=O)N[C@@H](CCCNC(=N)N)C(=O)N[C@@]1(C)CCC/C=C\CCC[C@@](C)(C(=O)N[C@@H](CCCNC(=N)N)C(=O)N[C@@H](CCC(=O)O)C(=O)N[C@@H](CC(C)C)C(=O)N[C@H](C(=O)N[C@@H](CCC(=O)O)C(N)=O)C(C)C)NC(=O)[C@H](CCC(N)=O)NC(=O)[C@H](CC(C)C)NC(=O)[C@H](CC(C)C)NC1=O)[C@@H](C)O)C(C)C (some centres not stated) | -75.5 |

# batch: return growth for each of the 5 compounds below
1. COc1ccc(Cl)cc1Nc1nc(C(F)(F)F)ccc1C(=O)N/N=C/c1ccc(Cl)cc1
2. OCC1OC2C(NC(=S)N2c2ccccc2)C(O)C1O (configuration not stated)
3. O=C1CCn2c1c(O)c1ccccc1c2=O
4. CC(=O)Nc1cc2c(cc1Cl)Cc1cc(Cl)ccc1-2
5. NC(=O)c1cccc(-n2ccc3cc(NC(=O)Nc4ccc(Cl)c(C(F)(F)F)c4)ccc32)n1

1: 34.6; 2: 96; 3: 100; 4: 86.1; 5: 53.4

The measured values listed here are drawn from PubChem BioAssay (NCI).
